tested on: CCRF-CEM leukemia; assay: NCI-60 one-dose screen, 48 h; conditions: 10 µM unless noted
Compounds without any hit were thinned out: in the full panel of roughly 83,000, 20% have a hit. Activity calls are given as the source filed them. How the source made its calls: active means growth percent below 10; inactive means the rest.
Classes used: 1 (active), -1 (inactive)

compound: Nc1c(C(=O)c2ccc(Cl)s2)sc2nc3c(cc12)CCCC3
classAssignment: -1
--
compound: CSc1nc(N)c(CNC(C)c2ccccc2)c(=O)n1C (stereo unspecified)
classAssignment: -1
--
compound: CCCCn1c(=O)[nH]c(N)c(C(c2ccc(F)cc2)c2c(N)[nH]c(=O)n(CCCC)c2=O)c1=O
classAssignment: -1
--
compound: Cc1cc2c(F)c(Oc3ncnc(Nc4ccc(N5C[C@@H](C)N[C@@H](C)C5)cc4)c3C#N)cc(F)c2[nH]1
classAssignment: 1
--
compound: CCCCCCCC/C=C/CCCCCCCC1=NCC[N+]1(CCO)CCO
classAssignment: -1
--
compound: Cc1c2c(cn1Cc1ccccc1)CCc1cn(C)nc1-2
classAssignment: -1
